Overview of reported IC50 across a group of molecules:
# tested on: GSK3α (GST-full length GSK3α) (Homo sapiens (Human), UniProt P49840)
# Sequence (P49840 whole entry): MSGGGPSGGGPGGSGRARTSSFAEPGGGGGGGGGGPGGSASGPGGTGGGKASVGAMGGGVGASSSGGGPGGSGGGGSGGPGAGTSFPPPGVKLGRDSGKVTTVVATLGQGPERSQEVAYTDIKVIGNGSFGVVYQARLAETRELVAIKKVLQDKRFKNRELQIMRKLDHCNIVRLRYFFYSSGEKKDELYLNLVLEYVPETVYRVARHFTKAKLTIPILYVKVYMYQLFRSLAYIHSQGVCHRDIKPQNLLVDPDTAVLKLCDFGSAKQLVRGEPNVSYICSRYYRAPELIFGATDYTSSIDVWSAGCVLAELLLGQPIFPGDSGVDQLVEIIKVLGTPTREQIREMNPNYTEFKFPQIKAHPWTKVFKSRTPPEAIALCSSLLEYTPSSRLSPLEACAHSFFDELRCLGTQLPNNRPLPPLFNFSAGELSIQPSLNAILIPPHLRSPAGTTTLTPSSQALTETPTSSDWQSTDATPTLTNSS
# method: GSK3α TR-FRET kinase assay
# Type: biochemical
# recorded conditions: 1 nM GSK3α, 4 μM ATP, 30 minute preincubation; read-out: GSK3-A TR-FRET BIOCHEMICAL (TR-FRET); IC50

Solved cases below.
[[record]]
molecule = "CCC1(c2cccc(-c3cn[nH]c3)c2)C2=C(CC(C)(C)NC2=O)Nc2n[nH]cc21 (stereo not shown)"
tested_on = "GSK3α (GST-full length GSK3α) (Homo sapiens (Human), UniProt P49840)"
measure_name = "IC50"
observed_measurement = "≤ 100 nM"

[[record]]
molecule = "CC[C@]1(c2cccc(C(F)(F)F)c2)C2=C(C[C@H](C)NC2=O)Nc2n[nH]cc21"
tested_on = "GSK3α (GST-full length GSK3α) (Homo sapiens (Human), UniProt P49840)"
measure_name = "IC50"
observed_measurement = "> 5000 nM"

[[record]]
molecule = "CC[C@@]1(c2cccc(C(F)(F)F)c2)C2=C(Nc3n[nH]cc31)[C@H](C)CNC2=O"
tested_on = "GSK3α (GST-full length GSK3α) (Homo sapiens (Human), UniProt P49840)"
measure_name = "IC50"
observed_measurement = "≤ 100 nM"

[[record]]
molecule = "CCC1(c2cccc(S(=O)(=O)C3CC3)c2)C2=C(CC(C)(C)NC2=O)Nc2n[nH]cc21 (stereo not shown)"
tested_on = "GSK3α (GST-full length GSK3α) (Homo sapiens (Human), UniProt P49840)"
measure_name = "IC50"
observed_measurement = "100 to 1000 nM"


For CCC1(c2cccc(-c3cn[nH]c3)c2)C2=C(CC(C)(C)NC2=O)Nc2n[nH]c(C)c21 (stereo not shown) , what is its reported IC50?
≤ 100 nM

For CC1(C)CC(=O)C2=C(C1)Nc1n[nH]cc1C21CCC2(CC1)COC2 , what is its reported IC50?
≤ 100 nM

For CCC1(c2ccccc2)C2=C(CSC(C)(C)C2=O)Nc2n[nH]cc21 (stereo not shown) , what is its reported IC50?
100 to 1000 nM

For CC1CCCC1C(=O)N1CC2(C1)CC1(CO2)C2=C(CC(C)(C)CC2=O)Nc2n[nH]cc21 (stereo not shown) , what is its reported IC50?
≤ 100 nM

For CCC1(c2cccc(C(F)(F)F)c2)C2=C(CCN(c3cccnc3)C2=O)Nc2n[nH]cc21 (stereo not shown) , what is its reported IC50?
≤ 100 nM

For CC1(C)CC(=O)C2=C(C1)Nc1n[nH]cc1[C@]21CCOC2(CCCC2)C1 , what is its reported IC50?
100 to 1000 nM
